B1: DYRK1B (parent)
chain: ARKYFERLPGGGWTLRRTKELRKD

# Variants of: B1
# test_details: protein stability index of a GFP-peptide fusion (GPS, HEK-293T) (PSI 1-6); higher = more stable;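 further: lentivirally expressed fusions sorted by FACS into six bins by GFP to DsRed ratio, PSI derived from sequencing read proportions per bin multiplied by bin number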
# condition: c terminus: a fixed tail appended
reported_endpoint: protein stability index
Give the value as a plain number.

Lab book: protein stability index of D24A noted as 3.75

Lab book: protein stability index of G11H noted as 2.4

Lab book: protein stability index of G12Y noted as 2.42

***
Lab book: protein stability index of Y4Q noted as 3.34

Lab book: protein stability index of R22K noted as 3.36

Lab book: protein stability index of F5L noted as 3.83

meta.source: the supplement of paper PMC10567573
